Target: T1, MERS1 (Trypanosoma brucei brucei TREU927, UniProt B6SBM0 37-395)
T1 sequence: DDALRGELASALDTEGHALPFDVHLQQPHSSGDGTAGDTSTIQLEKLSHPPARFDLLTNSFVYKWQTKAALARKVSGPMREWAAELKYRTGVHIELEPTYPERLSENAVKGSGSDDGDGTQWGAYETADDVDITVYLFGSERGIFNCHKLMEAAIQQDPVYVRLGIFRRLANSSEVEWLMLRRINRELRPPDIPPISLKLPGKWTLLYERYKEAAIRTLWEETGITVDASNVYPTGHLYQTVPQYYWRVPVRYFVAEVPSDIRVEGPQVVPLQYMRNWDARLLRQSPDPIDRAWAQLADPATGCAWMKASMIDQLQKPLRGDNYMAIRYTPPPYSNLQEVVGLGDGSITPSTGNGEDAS
Assay: fluorescence polarization; Results text prints the 12-mer; Methods and Fig. 5 print this 11-mer; FP: 25 mM Tris HCl pH 7.5, 50 mM NaCl, 5% (v/v) glycerol, 1 nM labeled RNA or DNA, 25 C
Conditions: protein: recombinant; tags: N-terminal His tag (pET15b, linker LVPRGSM); single-stranded
QUANTITY_MEASURED: pKd
One number for each entry, as −log10 of the molar value.

pKd recorded for this binder, GAGAGGGGGUU (ssRNA) [WT RNA site (11-mer, FP)] , is 7.40

Where do the numbers come from? From paper PMC6913127.
